# SYSTEM: CYP2B4 (Oryctolagus cuniculus, UniProt P00178)
# ASSAY SUMMARY: Mechanism based inhibition of rabbit cytochrome P450 CYP2B4
# Format: ADME
# EXPERIMENTAL SETUP: rabbit
READOUT LABEL: kinact (s⁻¹)
Write down the numeric answer in s⁻¹ and omit the unit.

Ask: API: value(readout= kinact, system= CYP2B4 (Oryctolagus cuniculus, UniProt P00178), query= Cn1c2ccccc2c2ccccc21 )
Reply: 0.0035

* * *

# SYSTEM: UniProtKB P05177
# ASSAY SUMMARY: Mechanism based inhibition of human cytochrome P450 1A2 measured by phenacetin O-deethylation (POD)
# Type: ADME
# EXPERIMENTAL SETUP: human, probe phenacetin (O-deethylation, POD)
Quick reference: kinact of the listed items.
Write down the numeric answer in s⁻¹ and omit the unit.

Ask: So what's the measured kinact for this one? C[C@H](c1cc2ccccc2s1)N(O)C(N)=O
Reply: 0.0002

Ask: So what's the measured kinact for this one? C[C@@H](c1cc2ccccc2s1)N(O)C(N)=O
Reply: 0.000617

Next:
Ask: So what's the measured kinact for this one? CC(c1cc2ccccc2s1)N(O)C(N)=O (racemic)
Reply: 0.000583

* * *

# SYSTEM: CYP2E1 (Rattus norvegicus)
# ASSAY SUMMARY: Mechanism based inhibition of rat cytochrome P450 CYP2E1 measured by P-nitrophenol (PNP) hydroxylase activity
# Format: ADME
# EXPERIMENTAL SETUP: rat, probe p-nitrophenol (PNP hydroxylase activity)
READOUT LABEL: kinact
Provide the measurement as a number trailed by its unit.

Ask: So what's the measured kinact for this one? C=CCS(=O)(=O)CC=C [DIALLYLSULFONE]
Reply: 0.00533 s⁻¹

* * *

# SYSTEM: Cytochrome P450 2E1 (Homo sapiens)
# ASSAY SUMMARY: Mechanism based inhibition of human cytochrome P450 2E1 measured in vivo
# Format: ADME, organism-based
READOUT LABEL: Ki (µM)
Write down the numeric answer in µM and omit the unit.

Ask: So what's the measured Ki for this one? CC(C)=CCC/C(C)=C/COc1c2ccoc2cc2oc(=O)ccc12 [BERGAMOTTIN]
Reply: 40

* * *

# SYSTEM: CYP3A4 (Homo sapiens, UniProt P08684)
# ASSAY SUMMARY: Mechanism based inhibition of human cytochrome P450 3A4 measured by DBF fluorescence
# Format: ADME
# EXPERIMENTAL SETUP: human, probe DBF
READOUT LABEL: kinact (s⁻¹)
Write down the numeric answer in s⁻¹ and omit the unit.

Ask: So what's the measured kinact for this one? CC(O)CCC(=O)c1ccoc1 (stereo unspecified)
Reply: 0.0025

* * *

# SYSTEM: Cytochrome P450 3A4 (Homo sapiens)
# ASSAY SUMMARY: Mechanism based inhibition of human cytochrome P450 3A4
# Assay type: ADME
Quick reference: Ki of the listed items.
Write down the numeric answer in µM and omit the unit.

Ask: API: value(readout= Ki, system= Cytochrome P450 3A4 (Homo sapiens), query= CCc1c2c(nc3ccc(O)cc13)-c1cc3c(c(=O)n1C2)COC(=O)[C@]3(O)CC [7-ETHYL-10-HYDROXYCAMPTOTHECIN] )
Reply: 26

Now let's try a different one.
Ask: API: value(readout= Ki, system= Cytochrome P450 3A4 (Homo sapiens), query= C/C(=C\COc1c2ccoc2cc2oc(=O)ccc12)CCC(O)C(C)(C)O (configuration not stated) [DIHYDROXYBERGAMOTTIN] )
Reply: 59

* * *

# SYSTEM: Cytochrome P450 2A6 (Homo sapiens, UniProt P11509)
# ASSAY SUMMARY: Mechanism based inhibition of human cytochrome P450 2A6 measured by coumarin 7-hydroxylation
# Type: ADME
READOUT LABEL: pKi
// scale note: pKi = -log10(conc_M); give the bare number

Ask: API: value(readout= pKi, system= Cytochrome P450 2A6 (Homo sapiens, UniProt P11509), query= CCCC(CCC)C(=O)O )
Reply: 2.04

Next:
Ask: API: value(readout= pKi, system= Cytochrome P450 2A6 (Homo sapiens, UniProt P11509), query= NNC(=O)c1ccncc1 )
Reply: 4.22

Ask: API: value(readout= pKi, system= Cytochrome P450 2A6 (Homo sapiens, UniProt P11509), query= O=c1ccc2cc3ccoc3cc2o1 )
Reply: 6.22

Ask: API: value(readout= pKi, system= Cytochrome P450 2A6 (Homo sapiens, UniProt P11509), query= COc1c2c(cc3ccc(=O)oc13)CCO2 )
Reply: 4.57

Ask: API: value(readout= pKi, system= Cytochrome P450 2A6 (Homo sapiens, UniProt P11509), query= COc1c2ccoc2cc2oc(=O)ccc12 )
Reply: 4.92

* * *

# SYSTEM: Cytochrome P450 3A6 (Oryctolagus cuniculus, UniProt P11707)
READOUT LABEL: Ki
Provide the measurement as a number trailed by its unit.

Ask: API: value(readout= Ki, system= Cytochrome P450 3A6 (Oryctolagus cuniculus, UniProt P11707), query= O=c1cc(-c2ccccc2)oc2c1ccc1ccccc12 )
Reply: 80.1 µM

* * *

# SYSTEM: Cytochrome P450 2C8 (Homo sapiens)
READOUT LABEL: pKi
// scale note: pKi = -log10(conc_M); give the bare number

Ask: API: value(readout= pKi, system= Cytochrome P450 2C8 (Homo sapiens), query= CCCCc1oc2ccccc2c1C(=O)c1cc(I)c(OCCN(CC)CC)c(I)c1 )
Reply: 4.29

* * *

Quick reference: kinact of the listed items.
# SYSTEM: CYP1A2 (Rattus norvegicus)
# ASSAY SUMMARY: Mechanism based inhibition of rat cytochrome P450 CYP1A2 measured by 7-methoxyresorufin O-demethylation (MROD)
# Assay type: ADME
# EXPERIMENTAL SETUP: rat, probe 7-methoxyresorufin (O-demethylation, MROD)
Write down the numeric answer in s⁻¹ and omit the unit.

Ask: So what's the measured kinact for this one? C#Cc1cc2ccccc2c2ccccc12
Reply: 0.000667

Ask: So what's the measured kinact for this one? C#Cc1ccc(-c2ccccc2)cc1
Reply: 0.00167

Ask: So what's the measured kinact for this one? CC#Cc1ccc2ccc3cccc4ccc1c2c34
Reply: 0.001

Next:
Ask: So what's the measured kinact for this one? C#Cc1cc2cccc3ccc4cccc1c4c32
Reply: 0.005

* * *

# SYSTEM: UniProtKB P11712
# ASSAY SUMMARY: Mechanism based inhibition of human cytochrome P450 2C9 measured by 7-EFC O-deethylation
# Assay type: ADME
READOUT LABEL: pKi
// scale note: pKi = -log10(conc_M); give the bare number

Ask: So what's the measured pKi for this one? COc1cc(C2Oc3cc([C@H]4Oc5cc(O)cc(O)c5C(=O)[C@@H]4O)ccc3OC2CO)ccc1O (stereo partly specified)
Reply: 5.30

* * *

# SYSTEM: CYP3A4 (Homo sapiens)
# ASSAY SUMMARY: Mechanism based inhibition of human cytochrome P450 3A4 measured by testosterone 6-beta hydroxylation using human liver microsomes
# Assay type: ADME, Microsome
# EXPERIMENTAL SETUP: human, liver microsomes, probe testosterone (6-beta hydroxylation)
READOUT LABEL: kinact (s⁻¹)
Write down the numeric answer in s⁻¹ and omit the unit.

Ask: API: value(readout= kinact, system= CYP3A4 (Homo sapiens), query= COc1ccc(CCNCCCC(C#N)(c2ccc(OC)c(OC)c2)C(C)C)cc1OC (stereo unspecified) [NORVERAPAMIL] )
Reply: 0.0035

* * *

# SYSTEM: UniProtKB P24460
# ASSAY SUMMARY: Mechanism based inhibition of dog cytochrome P450 CYP2B11 measured by Diazepam N1-demethylation using liver microsomes
# Assay type: ADME, Microsome
# EXPERIMENTAL SETUP: dog, liver microsomes, probe diazepam (N1-demethylation)
READOUT LABEL: kinact (s⁻¹)
Write down the numeric answer in s⁻¹ and omit the unit.

Ask: So what's the measured kinact for this one? CC(Nn1nnc2ccccc21)c1ccccc1 (stereo unspecified)
Reply: 0.00933

* * *

# SYSTEM: CYP3A4 (Homo sapiens, UniProt P08684)
# ASSAY SUMMARY: Mechanism based inhibition of human cytochrome P450 3A4 measured by (14C)formaldehyde production from (N-methyl-14C)-erythromycin
# Assay type: ADME
# EXPERIMENTAL SETUP: human, probe (N-methyl-14C)-erythromycin
Everything with kinact lower than 0.005 s⁻¹ is not fulfilled; everything else, including exactly 0.005 s⁻¹, is fulfilled.

Ask: Hi team, for COc1cc(C[C@@H](CO)[C@H](CO)Cc2ccc3c(c2)OCO3)cc(OC)c1OC , is the recorded kinact at or above 0.005 s⁻¹?
Reply: fulfilled

Ask: Hi team, for COc1cc(C[C@H]2C(O)OC[C@@H]2Cc2ccc3c(c2)OCO3)cc(OC)c1OC (stereo partly specified) , is the recorded kinact at or above 0.005 s⁻¹?
Reply: not fulfilled

Ask: Hi team, for OC[C@H](Cc1ccc2c(c1)OCO2)[C@H](CO)Cc1ccc2c(c1)OCO2 [DIHYDROCUBEBIN] , is the recorded kinact at or above 0.005 s⁻¹?
Reply: not fulfilled

Ask: Hi team, for O=c1c2ccccc2nc2n1CCc1c-2[nH]c2ccccc12 , is the recorded kinact at or above 0.005 s⁻¹?
Reply: fulfilled

Ask: Hi team, for O=C1OC[C@H](Cc2ccc3c(c2)OCO3)[C@H]1Cc1ccc2c(c1)OCO2 , is the recorded kinact at or above 0.005 s⁻¹?
Reply: fulfilled

Shift focus to the following entry.
Ask: Hi team, for COc1cc(C[C@H]2C(=O)OC[C@@H]2Cc2ccc3c(c2)OCO3)cc(OC)c1OC , is the recorded kinact at or above 0.005 s⁻¹?
Reply: fulfilled
